- Tested on: FAP-expressing HEK293T:hFAP tumor xenografts
- Test protocol: Ex vivo biodistribution in HEK293T:hFAP tumor-bearing mice
- Experimental conditions: 1 h post injection, mean ± SD, n = 4
Fat uptake reference
Answer as a quantity: numeral, then unit.

1. O=C([O-])CN1CCN(CC(=O)[O-])CCN(CC(=O)NC[C@H]2CC[C@H](C(=O)N[C@@H](Cc3c4ccccc4cc4ccccc34)C(=O)NCCCC[C@H](NC(=O)N[C@@H](CCC(=O)O)C(=O)O)C(=O)O)CC2)CCN(CC(=O)[O-])CC1.[68Ga+3] [[^68Ga]Ga-HTK03041, reference compound]    0.55 ± 0.12 %ID/g
2. N#C[C@@H]1CC(F)(F)CN1C(=O)CNC(=O)c1ccnc2ccc(OCCCN3CCN(C(=O)CN4CCN(CC(=O)[O-])CCN(CC(=O)[O-])CCN(CC(=O)[O-])CC4)CC3)cc12.[68Ga+3] [[^68Ga]Ga-FAPI-04, reference compound]    0.10 ± 0.01 %ID/g
3. N#C[C@@H]1CC(F)(F)CN1C(=O)CNC(=O)c1ccnc2ccc(-c3cn(CC(=O)N[C@@H](CCCCNC(=O)CN4CCN(CC(=O)[O-])CCN(CC(=O)[O-])CCN(CC(=O)[O-])CC4)C(=O)NCC(=O)NC[C@H]4CC[C@H](C(=O)N[C@@H](Cc5c6ccccc6cc6ccccc56)C(=O)NCCCC[C@H](NC(=O)N[C@@H](CCC(=O)O)C(=O)O)C(=O)O)CC4)nn3)cc12.[68Ga+3] [[^68Ga]Ga-AV01030]    0.63 ± 0.20 %ID/g

Input line: Record N#C[C@@H]1CC(F)(F)CN1C(=O)CNC(=O)c1ccnc2ccc(OCc3cn(CC(=O)N[C@@H](CCCCNC(=O)CN4CCN(CC(=O)[O-])CCN(CC(=O)[O-])CCN(CC(=O)[O-])CC4)C(=O)NCC(=O)NC[C@H]4CC[C@H](C(=O)N[C@@H](Cc5c6ccccc6cc6ccccc56)C(=O)NCCCC[C@H](NC(=O)N[C@@H](CCC(=O)O)C(=O)O)C(=O)O)CC4)nn3)cc12.[68Ga+3] [[^68Ga]Ga-AV01038] : what is its Fat uptake with FAP-expressing HEK293T:hFAP tumor xenografts?
Output line: 0.53 ± 0.10 %ID/g

Input line: Record N#C[C@@H]1CC(F)(F)CN1C(=O)CNC(=O)c1ccnc2ccc(OCCCc3cn(CC(=O)N[C@@H](CCCCNC(=O)CN4CCN(CC(=O)[O-])CCN(CC(=O)[O-])CCN(CC(=O)[O-])CC4)C(=O)NCC(=O)NC[C@H]4CC[C@H](C(=O)N[C@@H](Cc5c6ccccc6cc6ccccc56)C(=O)NCCCC[C@H](NC(=O)N[C@@H](CCC(=O)O)C(=O)O)C(=O)O)CC4)nn3)cc12.[68Ga+3] [[^68Ga]Ga-AV01017] : what is its Fat uptake with FAP-expressing HEK293T:hFAP tumor xenografts?
Output line: 0.61 ± 0.13 %ID/g
